molecular target: T1, human MCH-1R (human, UniProt Q99705 1-353); test: SPA, displacement of [125I]-[Phe13,Tyr19]-hMCH, CHO/MCH-1R membranes
T1 construct: Function: 293AEQ17/MCH-1R cells; also called hMCH-1R
T1 sequence (Q99705 whole entry): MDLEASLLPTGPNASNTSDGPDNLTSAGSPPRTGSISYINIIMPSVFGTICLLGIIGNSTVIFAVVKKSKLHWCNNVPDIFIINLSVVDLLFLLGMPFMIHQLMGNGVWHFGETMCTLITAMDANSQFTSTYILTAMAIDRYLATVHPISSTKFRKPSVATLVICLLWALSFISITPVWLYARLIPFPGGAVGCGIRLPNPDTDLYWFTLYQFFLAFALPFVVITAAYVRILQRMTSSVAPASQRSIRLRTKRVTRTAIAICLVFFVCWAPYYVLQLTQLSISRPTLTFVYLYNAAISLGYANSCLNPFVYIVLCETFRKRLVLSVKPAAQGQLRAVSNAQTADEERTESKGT
Positions of bridges follow the written chain, without caps; N, C: chain ends. Non-standard residues stand in square brackets, D forms with d. Cha = N[C@@H](CC1CCCCC1)C(=O)O
Catalogue of binders with associated IC50

[
  {
    "binder": "Ac-RCMLFRVYRPC-NH2 (disulfide 2-11 (inferred)) [SEQ. ID. NO. 20 (Phe^10 analog of Ac-hMCH(6-16)-NH2)]",
    "units": "nM",
    "IC50": 0.1
  },
  {
    "binder": "XMLGRVYRPC (Ac-Arg^6 segment eliminated; Mpr, des-amino-cysteine (3-mercaptopropionic acid) at position 7 instead of Cys; C-terminal amide; disulfide ring) [SEQ. ID. NO. 15 (Δ(X^6-Cys^7), Mpr^7 analog of Ac-hMCH(6-16)-NH2)]",
    "units": "nM",
    "IC50": 7
  },
  {
    "binder": "XCMLGRVYRPC (HELM PEPTIDE1{[ac].[dK].C.M.L.G.R.V.Y.R.P.C.[am]}$PEPTIDE1,PEPTIDE1,3:R3-12:R3$$$V2.0; SMILES CSCC[C@@H]1NC(=O)[C@@H](NC(=O)[C@@H](CCCCN)NC(C)=O)CSSC[C@@H](C(N)=O)NC(=O)[C@@H]2CCCN2C(=O)[C@H](CCCNC(=N)N)NC(=O)[C@H](Cc2ccc(O)cc2)NC(=O)[C@H](C(C)C)NC(=O)[C@H](CCCNC(=N)N)NC(=O)CNC(=O)[C@H](CC(C)C)NC1=O) [SEQ. ID. NO. 13 (Ac-D-Lys^6 analog of Ac-hMCH(6-16)-NH2)]",
    "units": "nM",
    "IC50": 0.3
  },
  {
    "binder": "RCMLXRVYRPC (HELM PEPTIDE1{[ac].R.C.M.L.[O=C([C@H](Cc1ccc2ccccc2c1)N[*:1])[*:2]].R.V.Y.R.P.C.[am]}$PEPTIDE1,PEPTIDE1,3:R3-12:R3$$$V2.0; SMILES CSCC[C@@H]1NC(=O)[C@@H](NC(=O)[C@H](CCCNC(=N)N)NC(C)=O)CSSC[C@@H](C(N)=O)NC(=O)[C@@H]2CCCN2C(=O)[C@H](CCCNC(=N)N)NC(=O)[C@H](Cc2ccc(O)cc2)NC(=O)[C@H](C(C)C)NC(=O)[C@H](CCCNC(=N)N)NC(=O)[C@H](Cc2ccc3ccccc3c2)NC(=O)[C@H](CC(C)C)NC1=O) [SEQ. ID. NO. 21 (Nal(2′)^10 analog of Ac-hMCH(6-16)-NH2)]",
    "units": "nM",
    "IC50": 1.3
  },
  {
    "binder": "RCMLXRVYRPC (N-terminal acetyl; Nle (norleucine) at position 10; C-terminal amide; disulfide cycle) [SEQ. ID. NO. 18 (Nle^10 analog of Ac-hMCH(6-16)-NH2)]",
    "units": "nM",
    "IC50": 0.1
  },
  {
    "binder": "Ac-RCML[Cha]RVYRPC-NH2 (disulfide 2-11) [SEQ. ID. NO. 19 (Cha^10 analog of Ac-hMCH(6-16)-NH2)]",
    "units": "nM",
    "IC50": 5
  },
  {
    "binder": "XCMLGRVYRPC (HELM PEPTIDE1{[ac].[dF].C.M.L.G.R.V.Y.R.P.C.[am]}$PEPTIDE1,PEPTIDE1,3:R3-12:R3$$$V2.0; SMILES CSCC[C@@H]1NC(=O)[C@@H](NC(=O)[C@@H](Cc2ccccc2)NC(C)=O)CSSC[C@@H](C(N)=O)NC(=O)[C@@H]2CCCN2C(=O)[C@H](CCCNC(=N)N)NC(=O)[C@H](Cc2ccc(O)cc2)NC(=O)[C@H](C(C)C)NC(=O)[C@H](CCCNC(=N)N)NC(=O)CNC(=O)[C@H](CC(C)C)NC1=O) [SEQ. ID. NO. 9 (Ac-D-Phe^6 analog of Ac-hMCH(6-16)-NH2)]",
    "units": "nM",
    "IC50": 0.9
  },
  {
    "binder": "Ac-RCMLNRVYRPC-NH2 (disulfide 2-11 (inferred), also called Asn^10 peptide) [SEQ. ID. NO. 25 (Asn^10 analog of Ac-hMCH(6-16)-NH2)]",
    "units": "nM",
    "IC50": 0.28
  },
  {
    "binder": "Ac-RCMLERVYRPC-NH2 (disulfide 2-11 (inferred), also called Glu^10 peptide) [SEQ. ID. NO. 28 (Glu^10 analog of Ac-hMCH(6-16)-NH2)]",
    "units": "nM",
    "IC50": 290
  },
  {
    "binder": "XCMLGRVYRPC (N-terminal acetyl; D-Cit (D-citrulline) at position 6; C-terminal amide; disulfide cycle) [SEQ. ID. NO. 14 (Ac-D-Cit^6 analog of Ac-hMCH(6-16)-NH2)]",
    "units": "nM",
    "IC50": 3
  },
  {
    "binder": "Ac-RCMLSRVYRPC-NH2 (disulfide 2-11 (inferred), also called Ser^10 peptide) [SEQ. ID. NO. 26 (Ser^10 analog of Ac-hMCH(6-16)-NH2)]",
    "units": "nM",
    "IC50": 0.54
  },
  {
    "binder": "Ac-RCMLKRVYRPC-NH2 (disulfide 2-11 (inferred)) [SEQ. ID. NO. 24 (Lys^10 analog of Ac-hMCH(6-16)-NH2)]",
    "units": "nM",
    "IC50": 17
  },
  {
    "binder": "XCMLGRVYRPC (D-Arg at position 6, no acetyl; C-terminal amide; disulfide cycle) [SEQ. ID. NO. 4 (D-Arg^6 analog lacking an Ac group)]",
    "units": "nM",
    "IC50": 0.35
  },
  {
    "binder": "Ac-RCMLRRVYRPC-NH2 (disulfide 2-11 (inferred)) [SEQ. ID. NO. 23 (Arg^10 analog of Ac-hMCH(6-16)-NH2)]",
    "units": "nM",
    "IC50": 640
  },
  {
    "binder": "Ac-RCMLPRVYRPC-NH2 (disulfide 2-11 (inferred)) [SEQ. ID. NO. 22 (Pro^10 analog of Ac-hMCH(6-16)-NH2)]",
    "units": "nM",
    "IC50": 760
  },
  {
    "binder": "RCMLXRVYRPC (HELM PEPTIDE1{[ac].R.C.M.L.[Cit].R.V.Y.R.P.C.[am]}$PEPTIDE1,PEPTIDE1,3:R3-12:R3$$$V2.0; SMILES CSCC[C@@H]1NC(=O)[C@@H](NC(=O)[C@H](CCCNC(=N)N)NC(C)=O)CSSC[C@@H](C(N)=O)NC(=O)[C@@H]2CCCN2C(=O)[C@H](CCCNC(=N)N)NC(=O)[C@H](Cc2ccc(O)cc2)NC(=O)[C@H](C(C)C)NC(=O)[C@H](CCCNC(=N)N)NC(=O)[C@H](CCCNC(N)=O)NC(=O)[C@H](CC(C)C)NC1=O, also called Cit^10 peptide) [SEQ. ID. NO. 27 (Cit^10 analog of Ac-hMCH(6-16)-NH2)]",
    "units": "nM",
    "IC50": 3.1
  },
  {
    "binder": "XCMLGRVYRPC (HELM PEPTIDE1{[ac].[dA].C.M.L.G.R.V.Y.R.P.C.[am]}$PEPTIDE1,PEPTIDE1,3:R3-12:R3$$$V2.0; SMILES CSCC[C@@H]1NC(=O)[C@@H](NC(=O)[C@@H](C)NC(C)=O)CSSC[C@@H](C(N)=O)NC(=O)[C@@H]2CCCN2C(=O)[C@H](CCCNC(=N)N)NC(=O)[C@H](Cc2ccc(O)cc2)NC(=O)[C@H](C(C)C)NC(=O)[C@H](CCCNC(=N)N)NC(=O)CNC(=O)[C@H](CC(C)C)NC1=O) [SEQ. ID. NO. 6 (Ac-D-Ala^6 analog of Ac-hMCH(6-16)-NH2)]",
    "units": "nM",
    "IC50": 0.77
  }
]

Hey, just so you know, these numbers are from patent US20050020492A1.
